Test system: various Staphylococcus aureus strains
Assay: Disc diffusion, Staphylococcus aureus strain study
Assay type: cell-based
Conditions: Staphylococcus aureus, strain Sa_TPS 3103; 500 μg/mL
metric_name: zone of inhibition at 500 µg/mL (mm)
State the answer as a number, implicitly in mm.

{"compound": "[C-]#[N+]/C=C/c1ccc(O)cc1/C=C/c1ccccc1 [Compound 36]", "assay_target": "various Staphylococcus aureus strains", "unit_abbrev": "mm", "zone of inhibition at 500 µg/mL": 32}
{"compound": "[C-]#[N+]C=Cc1ccc(O)cc1 [Compound 2, 4-(2-Isocyanovinyl)phenol]", "assay_target": "various Staphylococcus aureus strains", "unit_abbrev": "mm", "zone of inhibition at 500 µg/mL": 16}
{"compound": "[C-]#[N+]C=Cc1ccc(O)c(Br)c1 [Compound 14]", "assay_target": "various Staphylococcus aureus strains", "unit_abbrev": "mm", "zone of inhibition at 500 µg/mL": 26}
{"compound": "[C-]#[N+]/C=C/c1ccc(NC(C)=O)cc1/C=C/c1ccccc1 [Compound 41]", "assay_target": "various Staphylococcus aureus strains", "unit_abbrev": "mm", "zone of inhibition at 500 µg/mL": 28}

Just so you know, measured zone of inhibition at 500 µg/mL for [C-]#[N+]C=Cc1cc(Br)ccc1O [Compound 13] came out at 20

Reference for the values: patent US20240246905A1
